Reference source for all entries: ChEMBL document CHEMBL3352208

target: Neuronal acetylcholine receptor subunit alpha-7 (Homo sapiens, UniProt P36544); assay: Antagonist activity at human alpha7 nAChR expressed in GH3 cells by Ca2+/Fluo-4 assay; type: cell-based; conditions: read-out: pIC50 (converted)
Sequence (P36544 whole entry): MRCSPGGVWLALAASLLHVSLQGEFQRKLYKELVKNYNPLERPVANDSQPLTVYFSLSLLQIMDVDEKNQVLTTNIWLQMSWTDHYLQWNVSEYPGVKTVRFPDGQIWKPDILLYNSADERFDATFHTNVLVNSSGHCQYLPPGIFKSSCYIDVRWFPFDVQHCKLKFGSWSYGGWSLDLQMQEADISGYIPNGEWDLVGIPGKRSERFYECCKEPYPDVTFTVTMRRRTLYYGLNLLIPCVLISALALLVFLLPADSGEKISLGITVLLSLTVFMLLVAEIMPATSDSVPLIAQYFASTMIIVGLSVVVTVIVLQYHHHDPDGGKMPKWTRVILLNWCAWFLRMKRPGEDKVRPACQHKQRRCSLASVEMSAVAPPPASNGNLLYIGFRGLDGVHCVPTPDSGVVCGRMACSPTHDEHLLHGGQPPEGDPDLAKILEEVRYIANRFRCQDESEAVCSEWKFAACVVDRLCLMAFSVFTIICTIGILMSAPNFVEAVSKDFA
This listing pairs compounds with measured IC50.
Write the answer as a number in nM, unit excluded.

Please review the entries below; each comes with its answer.
# compound, IC50 (nM)
rows = [
    ("CC[C@@H]1C[N+]2(C)CC[C@@]34c5ccccc5N5/C=C6/[C@H]7C[C@H]8[C@@]9(CC[N+]8(C)C[C@H]7CCO)c7ccccc7N(/C=C(/[C@H]1C[C@@H]32)[C@H]54)[C@@H]69 (stereo partly drawn)", 603),
    ("CC[C@@H]1CN2CC[C@@]34c5ccccc5N5/C=C6/[C@H]7C[C@@H]8N(CC[C@@]89c8ccccc8N(/C=C(/[C@H]1C[C@H]23)[C@H]54)[C@@H]69)C[C@H]7CCO", 2340),
]

In the following, a different compound is considered.
Record CC[C@@H]1C[N+]2(C)CC[C@@]34c5ccccc5N5/C=C6/[C@H]7C[C@H]8[C@@]9(CC[N+]8(C)C[C@H]7CC)c7ccccc7N(/C=C(/[C@H]1C[C@@H]32)[C@H]54)[C@@H]69 (stereo partly drawn) : what is its IC50 with Neuronal acetylcholine receptor subunit alpha-7 (Homo sapiens, UniProt P36544)?
813
